- Tested on: LG0703-F948-PDC complex spheroid viability
- Assay Procedure: Anticancer human tumor LG0703-F948-PDC patient-derived lung adenocarcinoma cell line growth inhibition [RAS]
- Test Settings: compound 0.03 µM; active compounds read low
Measure Name: viability, T/C

Query: Could you share which viability, T/C value was measured for CCn1c(-c2cc(N3CCN(C)CC3)cnc2C(C)OC)c2c3cc(ccc31)-c1csc(n1)CC(NC(=O)C1CC1C)C(=O)N1CCCC(N1)C(=O)OCC(C)(C)C2 (centres undefined) ?
Result: 14% [middle of 8 runs]

Query: What would you report for `CCc1c2c(nc3ccc(O)cc13)-c1cc3c(c(=O)n1C2)COC(=O)[C@]3(O)CC` ?
Result: 65.8% [middle of 4 runs]

Query: What would you report for CC1(C)CCC(Nc2ncc(C(F)(F)F)c(-c3c[nH]c4c(P(C)(C)=O)c(C#N)ccc34)n2)CN1 (centres undefined) ?
Result: 67.9% [middle of 4 runs]

Query: What would you report for CCn1c(-c2cccnc2C(C)OC)c2c3cc(ccc31)N1CCOC(CC(NC(=O)C(C(C)C)N(C)C(=O)C3(F)CCN(C(=O)C#CC(C)(C)N(C)C)CC3)C(=O)N3CCCC(N3)C(=O)OCC(C)(C)C2)C1 (centres undefined) ?
Result: 101% [middle of 8 runs]

----------
- System: LG0703-F948-PDC complex spheroid viability
- Assay Procedure: Anticancer human tumor LG0703-F948-PDC cell line growth inhibition [RAS]; active = viability on the fitted dose curve at most 10% of control; inactive = the rest;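 also: spheroids exposed to agents for 7 days; 100% = DMSO vehicle wells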
- Test Settings: second compound 0.1 µM; first compound 10 µM
Your reply should match one of these outcome classes. active, inactive

Molecule	Group
CC1(O)CCCC1n1c(=O)c(C(F)F)cc2cnc(NC3CCN(S(C)(=O)=O)CC3)nc21 (centres undefined) + C#Cc1c(F)ccc2cc(O)cc(-c3ncc4c(N5CC6CCC(C5)N6)nc(OCC56CCCN5CC(F)C6)nc4c3F)c12	inactive

Query: Outcome logged for CC1(O)CCCC1n1c(=O)c(C(F)F)cc2cnc(NC3CCN(S(C)(=O)=O)CC3)nc21 (centres undefined) + C=CC(=O)N1CCN(c2nc(OCC3CCCN3C)nc3c(F)c(-c4nc(N)cc(C)c4C(F)(F)F)c(Cl)cc23)C(C)C1 in this assay:
Result: inactive

Query: What would you report for NC1c2ccccc2OC12CCN(c1cnc3c(N4CCCc5ncccc54)n[nH]c3n1)CC2 (centres undefined) + C#Cc1c(F)ccc2cc(O)cc(-c3ncc4c(N5CC6CCC(C5)N6)nc(OCC56CCCN5CC(F)C6)nc4c3F)c12 ?
Result: active

Query: What would you report for Cc1nc(N2CCC3(CC2)COC(C)C3N)c(CO)nc1Sc1ccnc(N)c1Cl (centres undefined) + C#Cc1c(F)ccc2cc(O)cc(-c3ncc4c(N5CC6CCC(C5)N6)nc(OCC56CCCN5CC(F)C6)nc4c3F)c12 ?
Result: active

Query: What would you report for NC1c2ccccc2OC12CCN(c1cnc3c(N4CCCc5ncccc54)n[nH]c3n1)CC2 (centres undefined) + C=CC(=O)N1CCN(c2nc(OCC3CCCN3C)nc3c(F)c(-c4nc(N)cc(C)c4C(F)(F)F)c(Cl)cc23)C(C)C1 ?
Result: active

Query: What would you report for C[C@@H](NC(=O)c1ncnc(N)c1Cl)c1ncc(C(=O)Nc2cc(C(F)(F)F)c(Cl)cn2)s1 + C=CC(=O)N1CCN(c2nc(OCC3CCCN3C)nc3c(F)c(-c4nc(N)cc(C)c4C(F)(F)F)c(Cl)cc23)C(C)C1 ?
Result: inactive

Query: What would you report for CC(C)NCC(C(=O)N1CCN(c2ncnc3c2C(C)CC3O)CC1)c1ccc(Cl)cc1 (centres undefined) + C#Cc1c(F)ccc2cc(O)cc(-c3ncc4c(N5CC6CCC(C5)N6)nc(OCC56CCCN5CC(F)C6)nc4c3F)c12 ?
Result: inactive

Query: What would you report for CC(=O)OC12COC1CC(O)C1(C)C(=O)C(O)C3=C(C)C(OC(=O)C(O)C(NC(=O)OC(C)(C)C)c4ccccc4)CC(O)(C(OC(=O)c4ccccc4)C21)C3(C)C (centres undefined) + C#Cc1c(F)ccc2cc(O)cc(-c3ncc4c(N5CC6CCC(C5)N6)nc(OCC56CCCN5CC(F)C6)nc4c3F)c12 ?
Result: inactive

Query: What would you report for CC(Nc1ccc2c(c1)OCCn1cc(N3C(=O)OCC3C(F)F)nc1-2)C(N)=O (centres undefined) + C#Cc1c(F)ccc2cc(O)cc(-c3ncc4c(N5CC6CCC(C5)N6)nc(OCC56CCCN5CC(F)C6)nc4c3F)c12 ?
Result: inactive

----------
- Tested on: LG0703-F948-PDC complex spheroid viability
- Assay Procedure: Anticancer human tumor LG0703-F948-PDC cell line growth inhibition [RAS];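 also: spheroids exposed to agents for 7 days; 100% = DMSO vehicle wells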
- Test Settings: second compound 10 µM; first compound 1 µM; active compounds read low
Each entry below carries its reported viability, T/C.
Dear colleague, please return just the value in %, with no unit written.

# example entries with known answers
Molecule	Readout Units	Measured Result
CCC(CC)c1cc(NC2CCC(N)C2)n2nccc2n1 (stereo not given) + C#Cc1c(F)ccc2cc(O)cc(-c3ncc4c(N5CC6CCC(C5)N6)nc(OCC56CCCN5CC(F)C6)nc4c3F)c12	%	19
CCN1CCN(Cc2ccc(Nc3ncc(F)c(-c4cc(F)c5nc(C)n(C(C)C)c5c4)n3)nc2)CC1 + C#Cc1c(F)ccc2cc(O)cc(-c3ncc4c(N5CC6CCC(C5)N6)nc(OCC56CCCN5CC(F)C6)nc4c3F)c12	%	36.9
Nc1ccn(C2OC(CO)C(O)C2(F)F)c(=O)n1 (stereo not given) + C#Cc1c(F)ccc2cc(O)cc(-c3ncc4c(N5CC6CCC(C5)N6)nc(OCC56CCCN5CC(F)C6)nc4c3F)c12	%	30.7
CC1(O)CCCC1n1c(=O)c(C(F)F)cc2cnc(NC3CCN(S(C)(=O)=O)CC3)nc21 (stereo not given) + C#Cc1c(F)ccc2cc(O)cc(-c3ncc4c(N5CC6CCC(C5)N6)nc(OCC56CCCN5CC(F)C6)nc4c3F)c12	%	62.9

Query: Item CC(C)NCC(C(=O)N1CCN(c2ncnc3c2C(C)CC3O)CC1)c1ccc(Cl)cc1 (stereo not given) + C#Cc1c(F)ccc2cc(O)cc(-c3ncc4c(N5CC6CCC(C5)N6)nc(OCC56CCCN5CC(F)C6)nc4c3F)c12 with LG0703-F948-PDC complex spheroid viability - viability, T/C?
Result: 8.97

----------
- Tested on: LG0703-F948-PDC complex spheroid viability
- Assay Procedure: Anticancer human tumor LG0703-F948-PDC cell line growth inhibition [RAS];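 also: spheroids exposed to agents for 7 days; 100% = DMSO vehicle wells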
- Test Settings: second compound 1 µM; first compound 0.0316 µM; active compounds read low
Measure Name: viability, T/C (%)
Dear colleague, please return just the value in %, with no unit written.

# example entries with known answers
Molecule	Target	viability, T/C (%)
C[C@@H](NC(=O)c1ncnc(N)c1Cl)c1ncc(C(=O)Nc2cc(C(F)(F)F)c(Cl)cn2)s1 + C#Cc1c(F)ccc2cc(O)cc(-c3ncc4c(N5CC6CCC(C5)N6)nc(OCC56CCCN5CC(F)C6)nc4c3F)c12	LG0703-F948-PDC complex spheroid viability	86.7
CC(C)NCC(C(=O)N1CCN(c2ncnc3c2C(C)CC3O)CC1)c1ccc(Cl)cc1 (stereo not given) + C=CC(=O)N1CCN(c2nc(OCC3CCCN3C)nc3c(F)c(-c4nc(N)cc(C)c4C(F)(F)F)c(Cl)cc23)C(C)C1	LG0703-F948-PDC complex spheroid viability	104
CC(=O)OC12COC1CC(O)C1(C)C(=O)C(O)C3=C(C)C(OC(=O)C(O)C(NC(=O)OC(C)(C)C)c4ccccc4)CC(O)(C(OC(=O)c4ccccc4)C21)C3(C)C (stereo not given) + C#Cc1c(F)ccc2cc(O)cc(-c3ncc4c(N5CC6CCC(C5)N6)nc(OCC56CCCN5CC(F)C6)nc4c3F)c12	LG0703-F948-PDC complex spheroid viability	25.5

Query: Could you share which viability, T/C value was measured for CC(C)n1nc(-c2ccc3oc(N)nc3c2)c2c(N)ncnc21 + C=CC(=O)N1CCN(c2nc(OCC3CCCN3C)nc3c(F)c(-c4nc(N)cc(C)c4C(F)(F)F)c(Cl)cc23)C(C)C1 ?
Result: 13.9

Query: What would you report for CC1(O)CCCC1n1c(=O)c(C(F)F)cc2cnc(NC3CCN(S(C)(=O)=O)CC3)nc21 (stereo not given) + C#Cc1c(F)ccc2cc(O)cc(-c3ncc4c(N5CC6CCC(C5)N6)nc(OCC56CCCN5CC(F)C6)nc4c3F)c12 ?
Result: 78.3

----------
- Tested on: LG0703-F948-PDC complex spheroid viability
- Assay Procedure: Anticancer human tumor LG0703-F948-PDC cell line growth inhibition [RAS]; active means viability on the fitted dose curve at most 10% of control; inactive means the rest;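 also: spheroids exposed to agents for 7 days; 100% = DMSO vehicle wells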
- Test Settings: second compound 0.00949 µM; first compound 3.16 µM
Your reply should match one of these outcome classes. 1 for active, 0 for inactive

Illustrative cases are given below, each with its answer.
Compound	Group
CC(=O)OC12COC1CC(O)C1(C)C(=O)C(O)C3=C(C)C(OC(=O)C(O)C(NC(=O)OC(C)(C)C)c4ccccc4)CC(O)(C(OC(=O)c4ccccc4)C21)C3(C)C (centres undefined) + CCn1c(-c2cc(N3CCN(C)CC3)cnc2C(C)OC)c2c3cc(ccc31)-c1csc(n1)CC(NC(=O)C1CC1C)C(=O)N1CCCC(N1)C(=O)OCC(C)(C)C2	0
CCC(CC)c1cc(NC2CCC(N)C2)n2nccc2n1 (centres undefined) + CCn1c(-c2cc(N3CCN(C)CC3)cnc2C(C)OC)c2c3cc(ccc31)-c1csc(n1)CC(NC(=O)C1CC1C)C(=O)N1CCCC(N1)C(=O)OCC(C)(C)C2	1
CCC(CC)c1cc(NC2CCC(N)C2)n2nccc2n1 (centres undefined) + CCn1c(-c2cccnc2C(C)OC)c2c3cc(ccc31)N1CCOC(CC(NC(=O)C(C(C)C)N(C)C(=O)C3(F)CCN(C(=O)C#CC(C)(C)N(C)C)CC3)C(=O)N3CCCC(N3)C(=O)OCC(C)(C)C2)C1	1

Query: Outcome logged for NC1c2ccccc2OC12CCN(c1cnc3c(N4CCCc5ncccc54)n[nH]c3n1)CC2 (centres undefined) + CCn1c(-c2cccnc2C(C)OC)c2c3cc(ccc31)N1CCOC(CC(NC(=O)C(C(C)C)N(C)C(=O)C3(F)CCN(C(=O)C#CC(C)(C)N(C)C)CC3)C(=O)N3CCCC(N3)C(=O)OCC(C)(C)C2)C1 in this assay:
Result: 1
